Each recorded value in this set is attributed to patent US6465509B2.

Biological target: UniProtKB P35354
Assay: Human whole blood assay, COX-2 (LPS-induced PGE2 production)
Type: cell-based
Design: endogenous in cells; host or cells: fresh heparinized human whole blood from volunteers, incubated with LPS
Conditions: LPS-induced PGE2, 24 hours at 37° C., read-out: COX-2 (IC50 μM) HWB
measured_quantity: IC50 (µM)

molecule: Cc1cc(-c2ccc(S(C)(=O)=O)cc2)c(SC(C)C)c(=O)o1 [Example 10]
IC50, µM: 1.3

molecule: Cc1cc(-c2ccc(S(C)(=O)=O)cc2)c(CCC(C)(C)O)c(=O)o1 [Example 14]
IC50, µM: 1.2

---

Molecular target: COX-2 (Homo sapiens)
Sequence (P35354 18-604): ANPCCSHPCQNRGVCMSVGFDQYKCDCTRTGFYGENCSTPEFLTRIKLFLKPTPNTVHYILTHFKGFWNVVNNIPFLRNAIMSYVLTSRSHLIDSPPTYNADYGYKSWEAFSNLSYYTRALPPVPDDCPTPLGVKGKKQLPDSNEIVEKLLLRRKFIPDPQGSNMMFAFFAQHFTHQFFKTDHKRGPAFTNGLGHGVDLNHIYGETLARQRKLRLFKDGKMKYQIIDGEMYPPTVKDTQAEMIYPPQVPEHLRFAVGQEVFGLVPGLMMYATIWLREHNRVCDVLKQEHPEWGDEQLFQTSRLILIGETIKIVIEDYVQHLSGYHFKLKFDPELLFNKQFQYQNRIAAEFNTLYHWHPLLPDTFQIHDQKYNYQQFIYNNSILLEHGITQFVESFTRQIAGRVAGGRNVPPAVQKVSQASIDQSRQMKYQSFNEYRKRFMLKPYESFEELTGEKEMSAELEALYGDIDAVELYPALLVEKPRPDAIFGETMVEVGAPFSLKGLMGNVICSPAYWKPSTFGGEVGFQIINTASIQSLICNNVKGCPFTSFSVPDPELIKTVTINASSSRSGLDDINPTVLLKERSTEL
Assay: Whole cell assay for COX-2 using CHO[hCOX-2] transfected cell line
Assay type: cell-based
Parameters: expressed in transfected cells; host or cells: CHO cells stably transfected with pCDNAIII (CHO[hCOX-2])
Conditions: CHO[hCOX-2] cells, PGE2 synthesis, 10 μM AA
measured_quantity: IC50 (µM)

(A) Cc1cc(-c2ccc(S(C)(=O)=O)cc2)c(CCC(C)(C)O)c(=O)o1
(B) CS(=O)(=O)c1ccc(-c2cc(C(F)F)oc(=O)c2-c2ccccc2)cc1
Larger number for IC50: A , or B ? Bench note: the answer is the label of the chosen record.
A
(A: 2.8 µM, B: 0.2 µM)

(a) Cc1cc(-c2ccc(S(C)(=O)=O)cc2)c(-c2cccnc2)c(=O)o1
(b) Cc1cc(-c2ccc(S(C)(=O)=O)cc2)c(Oc2ccccc2)c(=O)o1
(c) Cc1cc(-c2ccc(S(C)(=O)=O)cc2)c(-c2cccc(F)c2)c(=O)o1
List from greatest to least IC50. Your task in answering is to list the labels in the requested order.
a, c, b

(I) CC(C)Sc1c(-c2ccc(S(C)(=O)=O)cc2)cc(C(F)(F)F)oc1=O
(II) CS(=O)(=O)c1ccc(-c2cc(C(F)(F)F)oc(=O)c2Sc2ccccc2)cc1
For the pair I and II , which member has the lower IC50 number? // return label of chosen record
II
